Where a name gives a salt, the structure may show the parent alone.
The listing below reports IC50 for compounds tested on EGFR WT (Homo sapiens (Human)).

// worked examples, IC50 included
compound="C=C(F)C(=O)N1C2C=C(c3ccc4ncnc(Nc5ccc(Oc6ccc7c(c6)nnn7C)c(C)c5)c4n3)CC1CCC2 (stereo not shown) [Compound 406, trifluoroacetate]" system_tested="EGFR WT (Homo sapiens (Human))" recorded_value="≥ 1000 nM"
compound="C=CC(=O)N[C@H]1CCN(c2ncc3ncnc(Nc4ccc(Oc5ccc6c(c5)nnn6C)c(C)c4)c3n2)C1 [Compound 154]" system_tested="EGFR WT (Homo sapiens (Human))" recorded_value="100 to 500 nM"
compound="C=CC(=O)N1CCN(c2ncc3ncnc(Nc4cc(C)c(Oc5ccc6c(c5)ncn6C)cc4OC)c3n2)CC1 [Compound 11, trifluoroacetate]" system_tested="EGFR WT (Homo sapiens (Human))" recorded_value="100 to 500 nM"
compound="C=CC(=O)N1CCCN(c2ccc3ncnc(Nc4ccc(Oc5ccn6ncnc6c5)c(C)c4)c3n2)C[C@@H]1C [Compound 355]" system_tested="EGFR WT (Homo sapiens (Human))" recorded_value="≥ 1000 nM"
compound="C=CC(=O)N1C[C@H]2C[C@@H]1CN(c1ncc3ncnc(Nc4ccc(Oc5cc(F)c6c(c5)ncn6C)c(C)c4F)c3n1)C2 [Compound 167]" system_tested="EGFR WT (Homo sapiens (Human))" recorded_value="< 50 nM"

Required: IC50, one value per compound below.
1. C=CC(=O)N1CCN(c2ncc3ncnc(Nc4ccc(Oc5ccc6c(c5)nnn6C)c(C)c4F)c3n2)CC1(C)C [Compound 32]
2. C=CC(=O)N[C@@H]1CCN(c2ccc3ncnc(Nc4ccc(Oc5ccc6c(c5)nnn6C)c(C)c4F)c3n2)C[C@H]1F [Compound 287]

1: 100 to 500 nM; 2: 100 to 500 nM

----------
Target: ErbB2 V777L (Homo sapiens (Human), UniProt P04626, V777L)
Sequence (P04626 23-1255 V777L): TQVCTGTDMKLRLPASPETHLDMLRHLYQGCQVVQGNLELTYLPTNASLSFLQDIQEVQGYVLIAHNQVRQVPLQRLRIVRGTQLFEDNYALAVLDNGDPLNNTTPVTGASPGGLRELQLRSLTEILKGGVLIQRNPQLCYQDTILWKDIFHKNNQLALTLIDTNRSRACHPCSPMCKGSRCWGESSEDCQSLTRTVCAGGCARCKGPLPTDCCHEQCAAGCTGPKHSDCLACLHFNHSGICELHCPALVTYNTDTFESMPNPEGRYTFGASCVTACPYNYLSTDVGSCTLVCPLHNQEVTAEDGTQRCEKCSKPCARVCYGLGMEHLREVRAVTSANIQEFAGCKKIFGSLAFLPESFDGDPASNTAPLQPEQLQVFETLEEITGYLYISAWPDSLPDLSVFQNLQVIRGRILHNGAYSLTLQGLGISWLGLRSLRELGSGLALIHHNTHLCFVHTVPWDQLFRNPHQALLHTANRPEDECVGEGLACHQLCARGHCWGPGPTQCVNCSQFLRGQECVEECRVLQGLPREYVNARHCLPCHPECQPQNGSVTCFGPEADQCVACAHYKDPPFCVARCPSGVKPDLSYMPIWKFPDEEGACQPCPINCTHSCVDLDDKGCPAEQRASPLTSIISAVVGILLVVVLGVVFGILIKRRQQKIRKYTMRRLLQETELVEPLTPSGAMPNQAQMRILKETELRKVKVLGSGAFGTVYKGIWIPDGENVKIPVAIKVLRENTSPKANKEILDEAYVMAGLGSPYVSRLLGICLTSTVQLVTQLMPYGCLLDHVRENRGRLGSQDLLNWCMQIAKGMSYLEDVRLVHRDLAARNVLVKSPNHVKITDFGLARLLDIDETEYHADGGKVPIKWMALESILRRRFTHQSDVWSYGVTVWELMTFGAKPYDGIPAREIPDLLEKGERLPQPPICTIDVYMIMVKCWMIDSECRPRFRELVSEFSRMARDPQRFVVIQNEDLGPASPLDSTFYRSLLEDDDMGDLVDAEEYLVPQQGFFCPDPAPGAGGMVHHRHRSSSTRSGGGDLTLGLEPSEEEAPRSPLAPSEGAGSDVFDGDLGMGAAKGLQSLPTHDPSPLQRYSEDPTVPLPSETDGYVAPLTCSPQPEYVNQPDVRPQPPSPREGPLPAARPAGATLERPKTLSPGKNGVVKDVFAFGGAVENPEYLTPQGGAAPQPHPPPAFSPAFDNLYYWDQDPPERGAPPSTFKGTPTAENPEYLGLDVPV
Assay: ErbB enzyme assay (CisBio HTRF-KinEASE-TK), ErbB2 V777L
Assay type: biochemical
pIC50: −log10 of the molar value.
measurement-name: pIC50

// worked examples, pIC50 included
smiles_string=C=CC(=O)N1CCN(c2ncc3ncnc(Nc4ccc(Oc5ccc6c(c5)nnn6C)c(C)c4)c3c2OC)CC1 recorded_value="6.30 to 7.00"
smiles_string=C=CC(=O)N1CCCN(c2ccc3ncnc(Nc4ccc(Oc5ccc6c(c5)nnn6C)c(C)c4)c3n2)CC1 recorded_value="6.30 to 7.00"
smiles_string=C=CC(=O)N[C@@H]1CCCN(c2ccc3ncnc(Nc4cc(C)c(Oc5ccc6c(c5)nnn6C)cc4OC)c3n2)C1 recorded_value="6.00 to 6.30"

Alright, here's another compound for you.
Please supply the value of reported pIC50 for the item C=C(F)C(=O)N1CC(F)(F)C12CN(c1ncc3ncnc(Nc4ccc(Oc5ccc6c(c5)nnn6C)c(C)c4)c3n1)C2
7.00 to 7.30

----------
Molecular target: ErbB2 V777L (Homo sapiens (Human), UniProt P04626, V777L)
Assay: ErbB enzyme assay (CisBio HTRF-KinEASE-TK), ErbB2 V777L
Format: biochemical
Counter-ions that a name gives are not always drawn.
Field: IC50. Provide a value for each of the molecules that follow.

// worked examples, IC50 included
molecule=C=CC(=O)N1CCN(c2ccc3ncnc(Nc4ccc(Oc5ccc6c(c5)nnn6C)c(C)c4)c3n2)C[C@H]1C1CC1 recorded_value="50 to 100 nM"
molecule=C=CC(=O)N1CCN(c2ncc3ncnc(Nc4ccc(Oc5ccc6c(c5)nnn6C)c(C)c4)c3n2)C[C@H]1C recorded_value="50 to 100 nM"
molecule=C=C(C)C(=O)N1CCN(c2ncc3ncnc(Nc4ccc(Oc5ccc6c(c5)nnn6C)c(C)c4)c3n2)CC1 recorded_value="500 to 1000 nM"
molecule=C=CC(=O)N1CCN(c2ncc3ncnc(Nc4cc(C)c(Oc5ccc6c(c5)nnn6C)cc4F)c3n2)CC1 recorded_value="100 to 500 nM"
molecule="C=CC(=O)N[C@H]1CCCN(c2ccc3ncnc(Nc4ccc(Oc5ccc6c(c5)nnn6C)c(C)c4F)c3n2)[C@@H]1C (single isomer, unassigned)" recorded_value="100 to 500 nM"

Required: IC50, one value per molecule below.
1. C=CC(=O)N1CC2CC1CN2c1ncc2ncnc(Nc3ccc(Oc4ccc5c(c4)nnn5C)c(C)c3)c2n1 (centres unmarked)
2. Cc1cc(Nc2ncnc3cnc(N4CCN(C(=O)/C=C/CN(C)C)CC4)nc23)ccc1Oc1ccc2c(c1)nnn2C

1: 50 to 100 nM; 2: 50 to 100 nM

Required: IC50, one value per molecule below.
1. C=CC(=O)N[C@H]1[C@@H]2CC[C@H]1CN(c1ncc3ncnc(Nc4ccc(Oc5ccc6c(c5)nnn6C)c(C)c4)c3n1)C2
2. C=CC(=O)N1CCN(c2ccc3ncnc(Nc4ccc(Oc5ccc6c(c5)nnn6C)c(C)c4F)c3n2)CC1(C)C
3. C=CC(=O)N1CC[C@@H]2CN(c3ncc4ncnc(Nc5ccc(Oc6ccc7c(c6)nnn7C)c(C)c5)c4n3)C[C@@H]21
4. C=CC(=O)N1C2C=C(c3ccc4ncnc(Nc5ccc(Oc6ccc7c(c6)nnn7C)c(C)c5)c4n3)CC1CC2 (centres unmarked) [Compound 409, trifluoroacetate]

["≥ 1000 nM", "100 to 500 nM", "100 to 500 nM", "50 to 100 nM"]

Required: IC50, one value per molecule below.
1. C=CC(=O)N1CC2CC1CN(c1ncc3ncnc(Nc4ccc(Oc5cc(F)c6c(c5)ncn6C)c(C)c4F)c3n1)C2 (centres unmarked)
2. C=CC(=O)N(C)C1CCN(c2ncc3ncnc(Nc4ccc(Oc5ccc6c(c5)nnn6C)c(C)c4F)c3n2)C1 (centres unmarked)
3. C=C(COC)C(=O)N1CC(F)(F)C12CN(c1ncc3ncnc(Nc4ccc(Oc5ccc6c(c5)nnn6C)c(C)c4)c3n1)C2

50 to 100 nM
100 to 500 nM
100 to 500 nM

----------
The listing below reports pIC50 for molecules tested on EGFR WT (Homo sapiens (Human), UniProt P00533).
Sequence (P00533 25-1210): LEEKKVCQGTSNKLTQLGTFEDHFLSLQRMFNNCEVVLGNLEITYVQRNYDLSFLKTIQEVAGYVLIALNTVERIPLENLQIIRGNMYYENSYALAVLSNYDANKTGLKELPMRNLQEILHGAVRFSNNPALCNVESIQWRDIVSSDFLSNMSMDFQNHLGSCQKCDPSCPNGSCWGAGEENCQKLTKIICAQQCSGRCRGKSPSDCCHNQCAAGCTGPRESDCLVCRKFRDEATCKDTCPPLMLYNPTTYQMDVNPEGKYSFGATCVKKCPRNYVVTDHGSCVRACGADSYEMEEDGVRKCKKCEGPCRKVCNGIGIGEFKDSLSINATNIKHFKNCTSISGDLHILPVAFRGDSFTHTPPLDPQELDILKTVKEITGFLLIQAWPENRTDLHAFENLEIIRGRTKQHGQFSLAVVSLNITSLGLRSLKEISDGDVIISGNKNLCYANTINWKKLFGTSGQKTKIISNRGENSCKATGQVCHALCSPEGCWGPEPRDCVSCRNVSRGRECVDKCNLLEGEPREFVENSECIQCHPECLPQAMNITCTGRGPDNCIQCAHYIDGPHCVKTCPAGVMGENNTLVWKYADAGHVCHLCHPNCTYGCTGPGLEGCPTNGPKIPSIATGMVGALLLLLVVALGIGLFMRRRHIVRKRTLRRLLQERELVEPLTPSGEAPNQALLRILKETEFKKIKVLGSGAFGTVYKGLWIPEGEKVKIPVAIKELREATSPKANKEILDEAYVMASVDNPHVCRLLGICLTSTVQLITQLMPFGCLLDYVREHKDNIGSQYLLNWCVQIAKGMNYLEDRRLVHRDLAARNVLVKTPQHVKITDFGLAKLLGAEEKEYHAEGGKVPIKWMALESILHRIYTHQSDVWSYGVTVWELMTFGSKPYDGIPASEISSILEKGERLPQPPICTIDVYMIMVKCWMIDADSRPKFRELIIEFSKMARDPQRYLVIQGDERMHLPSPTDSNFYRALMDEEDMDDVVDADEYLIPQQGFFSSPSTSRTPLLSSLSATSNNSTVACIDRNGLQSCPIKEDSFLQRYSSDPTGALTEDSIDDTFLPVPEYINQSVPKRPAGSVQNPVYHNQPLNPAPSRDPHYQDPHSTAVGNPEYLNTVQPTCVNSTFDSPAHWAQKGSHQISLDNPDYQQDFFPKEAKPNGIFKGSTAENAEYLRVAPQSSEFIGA
pIC50: −log10 of the molar value.

smiles_string=C=CC(=O)N1CCCN(c2ccc3ncnc(Nc4ccc(Oc5ccc6c(c5)nnn6C)c(C)c4)c3n2)CC1 system_tested="EGFR WT (Homo sapiens (Human), UniProt P00533)" recorded_value="6.00 to 6.30"
smiles_string=C=CC(=O)N1CCN(c2ccc3ncnc(Nc4ccc(Oc5ccc6c(c5)nnn6C)c(C)c4F)c3n2)C[C@H]1C system_tested="EGFR WT (Homo sapiens (Human), UniProt P00533)" recorded_value="6.30 to 7.00"
smiles_string=C=C(COC)C(=O)N1CC(F)(F)C12CN(c1ncc3ncnc(Nc4ccc(Oc5ccc6c(c5)nnn6C)c(C)c4)c3n1)C2 system_tested="EGFR WT (Homo sapiens (Human), UniProt P00533)" recorded_value="6.00 to 6.30"

Alright, here's another molecule for you.
Please supply the value of reported pIC50 for the item C=CC(=O)N1CCCN(c2ccc3ncnc(Nc4ccc(Oc5ccn6ncnc6c5)c(C)c4)c3n2)CC1
6.00 to 6.30

----------
Biological target: ErbB2 V777L (Homo sapiens (Human), UniProt P04626, V777L)
Assay: ErbB enzyme assay (CisBio HTRF-KinEASE-TK), ErbB2 V777L
Type: biochemical
measurement-name: IC50

compound="C=CC(=O)N1CCC12CCN(c1ncc3ncnc(Nc4ccc(Oc5ccc6c(c5)nnn6C)c(C)c4)c3n1)C2 (stereo not drawn) [Compound 222]" system_tested="ErbB2 V777L (Homo sapiens (Human), UniProt P04626, V777L)" recorded_value="50 to 100 nM"

Required: IC50, one value per compound below.
1. C=CC(=O)N1CCCN(c2ccc3ncnc(Nc4ccc(Oc5ccc6c(c5)nnn6C)c(C)c4)c3n2)C[C@@H]1C [Compound 284]
2. Cc1cc(Nc2ncnc3cnc(N4CCN(C(=O)/C=C/CN5CCCC5)CC4)nc23)ccc1Oc1ccc2c(c1)nnn2C [Compound 52]
3. C=CC(=O)N1CC2CC(C1)N2c1ccc2ncnc(Nc3ccc(Oc4ccc5c(c4)nnn5C)c(C)c3)c2n1 [Compound 96]
4. C=CC(=O)N[C@H]1CN(c2ccc3ncnc(Nc4ccc(Oc5ccc6c(c5)nnn6C)c(C)c4F)c3n2)CC[C@@H]1F [Compound 296]
5. C=CC(=O)N[C@@H]1CCCCN(c2ccc3ncnc(Nc4ccc(Oc5ccc6c(c5)nnn6C)c(C)c4F)c3n2)C1 [Compound 289]
6. C=CC(=O)N1C2COCC1CC(c1ccc3ncnc(Nc4ccc(Oc5ccc6c(c5)nnn6C)c(C)c4)c3n1)C2 (stereo not drawn) [Compound 396]
7. C=CC(=O)N1CCN(c2ccc3ncnc(Nc4cc(C)c(Oc5ccc6c(c5)nnn6C)cc4OC(F)(F)F)c3n2)CC1(C)C [Compound 306]
8. C=CC(=O)N1C[C@H]2CN(c3ncc4ncnc(Nc5ccc(Oc6ccc7c(c6)nnn7C)c(C)c5)c4n3)C[C@H]21 [Compound 243]

["500 to 1000 nM", "50 to 100 nM", "100 to 500 nM", "100 to 500 nM", "500 to 1000 nM", "50 to 100 nM", "100 to 500 nM", "100 to 500 nM"]
